Assignment: determine reported IC50 for the given binders.
# Target entity: T1, mouse BR3 extracellular domain (mouse, UniProt Q9D8D0 1-64)
# T1 construct: also called mBR3-ECD; mBR-ECD
# T1 sequence: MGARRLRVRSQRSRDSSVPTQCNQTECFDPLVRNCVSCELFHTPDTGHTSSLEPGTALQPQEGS
# Measurement description: phage competition ELISA
Kindly provide the numeric value in nM only, without the unit symbol.

Value of measured IC50 for the entry 37 (Fab, V domains shown, also called V3-37) VH: EVQLVESGGGLVQPGGSLRLSCAASGFSISRRSIHWVRQAPGKGLEWVAWITPLYGSTHYADSVKGRFTISADTSKNTAYLQMNSLRAEDTAVYYCARRVCYNRLGVCAGGMDYWGQGTLVTVSS VL: DIQMTQSPSSLSASVGDRVTITCRASQDVSTAVAWYQQKPGKAPKLLIYSASFLYSGVPSRFSGSGSGTDFTLTISSLQPEDFATYYCQQSRISPPTFGQGTKVEIKR : 1.3

Value of measured IC50 for the entry 41 (Fab, V domains shown, also called V3-41; clone 41) VH: EVQLVESGGGLVQPGGSLRLSCAASGFSIRNNSIHWVRQAPGKGLEWVAWVLPSNGVTDYADSVKGRFTISADTSKNTAYLQMNSLRAEDTAVYYCARRVCYNRLGVCAGGMDYWGQGTLVTVSS VL: DIQMTQSPSSLSASVGDRVTITCRASQDVSTAVAWYQQKPGKAPKLLIYSASFLYSGVPSRFSGSGSGTDFTLTISSLQPEDFATYYCQQSGISPPTFGQGTKVEIKR : 0.6

Value of measured IC50 for the entry 34 (Fab, V domains shown, also called V3-34) VH: EVQLVESGGGLVQPGGSLRLSCAASGFSISNHSIHWVRQAPGKGLEWVAWVTPSYGITDYADSVKGRFTISADTSKNTAYLQMNSLRAEDTAVYYCARRVCYNRLGVCAGGMDYWGQGTLVTVSS VL: DIQMTQSPSSLSASVGDRVTITCRASQDVSTAVAWYQQKPGKAPKLLIYSASFLYSGVPSRFSGSGSGTDFTLTISSLQPEDFATYYCQQSRTTPPTFGQGTKVEIKR : 6.4
